Recorded values, source ChEMBL document CHEMBL1148328.

target: Cruzipain (Trypanosoma cruzi, UniProt P25779)
Sequence (P25779 whole entry): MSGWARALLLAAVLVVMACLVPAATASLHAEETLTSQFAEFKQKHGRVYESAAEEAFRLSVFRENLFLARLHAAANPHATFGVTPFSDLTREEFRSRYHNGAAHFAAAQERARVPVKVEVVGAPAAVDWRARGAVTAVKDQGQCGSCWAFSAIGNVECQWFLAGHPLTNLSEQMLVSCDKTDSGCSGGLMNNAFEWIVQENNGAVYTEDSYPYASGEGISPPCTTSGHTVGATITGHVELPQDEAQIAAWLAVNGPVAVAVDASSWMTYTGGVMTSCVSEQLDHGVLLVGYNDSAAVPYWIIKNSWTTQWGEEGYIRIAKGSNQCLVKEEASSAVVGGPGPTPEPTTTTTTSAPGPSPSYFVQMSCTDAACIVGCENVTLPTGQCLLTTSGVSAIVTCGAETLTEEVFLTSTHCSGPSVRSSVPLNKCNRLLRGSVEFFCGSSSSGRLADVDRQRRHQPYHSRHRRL
observation.type: IC50

Here is how some compounds turned out for IC50.
>  <smiles.record>
C/C(=N\N=C(\N)S)c1ccc(Oc2ccccc2)cc1

>  <observation.type>
IC50

>  <recorded.value>
10 µM

$$$$
>  <smiles.record>
C/C(=N/N=C(/N)S)c1cccc(/C(C)=N/N=C(/N)S)c1

>  <observation.type>
IC50

>  <recorded.value>
5 µM

$$$$
>  <smiles.record>
C/C(=N\N=C(\N)S)c1cccc(Oc2ccccc2)c1

>  <observation.type>
IC50

>  <recorded.value>
10 µM

$$$$
>  <smiles.record>
C/C(=N\N=C(\N)S)c1cccc(Br)c1

>  <observation.type>
IC50

>  <recorded.value>
0.06 µM

$$$$
>  <smiles.record>
C/C(=N\N=C(\N)S)c1ccc(-c2ccccc2)cc1

>  <observation.type>
IC50

>  <recorded.value>
5 µM

$$$$
>  <smiles.record>
C/C(=N\N=C(\N)S)c1ccc(Nc2ccccc2)cc1

>  <observation.type>
IC50

>  <recorded.value>
> 20 µM

$$$$

Now for a further compound.
For Cruzipain (Trypanosoma cruzi, UniProt P25779), provide IC50 of C/C(=N\NC(N)=S)c1ccccn1 please. > 20 µM

----------
experiment: Survival of infected cells against Trypanosoma cruzi in days at a dose of 5 uM; Toxicity = Toxic
Reported values of Survival for individual entries
Give just the numeric value; days need not be written.

Please review the following examples before continuing.
>  <smiles.record>
C/C(=N\N=C(/S)N1CCN(C)CC1)c1cccc(Br)c1

>  <unit.of.measure>
days

>  <recorded.value>
14

$$$$
>  <smiles.record>
C/C(=N\N=C(\N)S)c1cccc(Oc2ccccc2)c1

>  <unit.of.measure>
days

>  <recorded.value>
27

$$$$
>  <smiles.record>
CS/C(S)=N/N=C(\C)c1cccc(Br)c1

>  <unit.of.measure>
days

>  <recorded.value>
7

$$$$
>  <smiles.record>
C/C(=N\N=C(\N)S)c1ccc(-c2ccccc2)cc1

>  <unit.of.measure>
days

>  <recorded.value>
8

$$$$

Could you tell me which Survival is on file for C/C(=N\N=C(\N)S)c1ccc(Oc2ccccc2)cc1 ? 28

----------
target: Cruzipain (Trypanosoma cruzi, UniProt P25779)
// reported IC50 for each item listed
State just the number; it will be interpreted in µM.

A selection of reference data follows.
>  <smiles.record>
C/C(=N\N=C(/S)N1CCCCC1)c1cccc(Br)c1

>  <experimental.system>
Cruzipain (Trypanosoma cruzi, UniProt P25779)

>  <observation.type>
IC50

>  <unit.of.measure>
µM

>  <recorded.value>
5

$$$$
>  <smiles.record>
C/C(=N\N=C(\N)S)c1cccc(-c2ccccc2)c1

>  <experimental.system>
Cruzipain (Trypanosoma cruzi, UniProt P25779)

>  <observation.type>
IC50

>  <unit.of.measure>
µM

>  <recorded.value>
8

$$$$
>  <smiles.record>
C/C(=N\N=C(/S)N1CCN(C)CC1)c1cccc(Br)c1

>  <experimental.system>
Cruzipain (Trypanosoma cruzi, UniProt P25779)

>  <observation.type>
IC50

>  <unit.of.measure>
µM

>  <recorded.value>
5

$$$$

API: value(readout=IC50, system=Cruzipain (Trypanosoma cruzi, UniProt P25779)) for record CCN(CC)/C(S)=N/N=C(\C)c1cccc(Br)c1 5
